- Assayed system: T1, human CD1a protein (pool B) (human, UniProt P06126 18-295, limits assumed)
- T1 construct: Recombinant protein of the ELISA (coated) and the Biacore T200 titration; whole entry named; also called human CD1a pool B; full length CD1a
- T1 sequence (P06126 18-295 limits assumed): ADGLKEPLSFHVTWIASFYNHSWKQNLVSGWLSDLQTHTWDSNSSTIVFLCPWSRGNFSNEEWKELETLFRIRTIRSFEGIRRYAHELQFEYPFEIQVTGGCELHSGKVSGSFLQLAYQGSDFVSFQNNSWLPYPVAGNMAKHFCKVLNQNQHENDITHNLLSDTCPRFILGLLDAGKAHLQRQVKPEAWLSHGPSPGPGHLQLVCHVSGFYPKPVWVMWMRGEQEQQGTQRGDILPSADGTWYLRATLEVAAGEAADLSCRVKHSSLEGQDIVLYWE
- Test summary: ELISA, 0.0316 µg/ml antibody
// Optical Density (OD) lookup, one value per entry
Endpoint: Optical Density (OD)

binder="111 (VR12113) (antibody, V domains shown, also called OX111) VH: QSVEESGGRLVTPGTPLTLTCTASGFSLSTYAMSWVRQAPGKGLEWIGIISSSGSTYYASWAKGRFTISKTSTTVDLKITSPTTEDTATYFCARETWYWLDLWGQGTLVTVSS VL: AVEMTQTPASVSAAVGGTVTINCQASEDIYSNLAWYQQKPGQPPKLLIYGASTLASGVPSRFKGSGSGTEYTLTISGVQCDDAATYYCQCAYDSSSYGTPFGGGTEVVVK" endpoint="Optical Density (OD)" experimental_result="1.1 OD"
binder="110 (VR12112) (antibody, V domains shown, also called OX110; antibody 110) VH: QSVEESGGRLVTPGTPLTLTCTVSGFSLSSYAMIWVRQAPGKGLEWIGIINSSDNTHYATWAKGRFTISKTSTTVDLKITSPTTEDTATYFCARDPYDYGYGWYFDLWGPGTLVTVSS VL: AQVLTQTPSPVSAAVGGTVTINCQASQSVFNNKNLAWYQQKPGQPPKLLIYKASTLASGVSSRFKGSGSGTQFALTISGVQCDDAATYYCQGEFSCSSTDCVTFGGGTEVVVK" endpoint="Optical Density (OD)" experimental_result="0.81 OD"
binder="77A (VR11851) (antibody, V domains shown, also called OX77a; antibody 77a) VH: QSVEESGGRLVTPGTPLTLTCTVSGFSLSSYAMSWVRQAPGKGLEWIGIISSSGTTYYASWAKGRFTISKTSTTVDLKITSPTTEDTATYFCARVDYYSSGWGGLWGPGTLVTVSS VL: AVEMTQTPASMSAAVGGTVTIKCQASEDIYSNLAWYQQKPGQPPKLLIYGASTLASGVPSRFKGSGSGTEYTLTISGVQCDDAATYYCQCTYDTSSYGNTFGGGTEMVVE" endpoint="Optical Density (OD)" experimental_result="1.25 OD"
